OD 1:5 dilution of supernatant: recorded values
# SYSTEM: T1, KLH (key hole limpet hemocyanine)
# T1 construct: Control antigen coated at 1 µg/ml
# MEASUREMENT_NOTES: ELISA, single point, KLH coated
Supply the numeric figure in mE, leaving out any unit text.

anti-Tau pS422 antibody Mab 085 (antibody, V domains shown, Rabbit monoclonal antibody, recombinantly expressed in HEK293 with rabbit kappa and gamma constant regions) VH: QSVEESGGRLVTPGTPLTLTCTVSGLSLSSNAINWVRQAPGKGLEWIGYIAVSGNTYYASWAKGRFTISKASTTVDLKMTSPTAEDTGTYFCGKSNIWGPGTLVTVSL VL: QVLTQTASPVSAAVGITVTISCQSSQSVRTNKLAWFQQKPGQPPKRLIYSASTLDSGVPSRFSASGSGTQFTLTISDVQCDDAATYYCLGYYDCSIADCVAFGGGTEVVVK = 0.029

## Input For the binder anti-Tau pS422 antibody Mab 097 (antibody, V domains shown, Rabbit monoclonal antibody, recombinantly expressed in HEK293 with rabbit kappa and gamma constant regions) VH: QSVEESGGRLVTPGTPLTLTCTVSGIDLSSYSITWVRQAPGKGLEYIGFIGTGGSTYYASWAKGRFTISRTSTTVDLKITSPTTEDTATYFCARGGDLWGPGTLVTVSS VL: QVLTQTASSVSAAVGGTVTINCQSSQNVYNNNKLAWFQQKPGQPPKRLIYGASTLASGVSSRFKGSGSGTQFTLTISDLECDDAATYYCLGGYSGNIYTFGGGTEVVVK , what OD 1:5 dilution of supernatant is on record?
## Output 0.042
